biological target: Beta-galactoside alpha-2,6-sialyltransferase 1 (Homo sapiens); test: Inhibition of recombinant human N-terminal His-tagged ST6Gal-1 (44 to 406 residues) using CMP-Neu5Ac as substrate […] by UV/RP-HPLC method
Sequence (P15907 whole entry, the tested form may be a part): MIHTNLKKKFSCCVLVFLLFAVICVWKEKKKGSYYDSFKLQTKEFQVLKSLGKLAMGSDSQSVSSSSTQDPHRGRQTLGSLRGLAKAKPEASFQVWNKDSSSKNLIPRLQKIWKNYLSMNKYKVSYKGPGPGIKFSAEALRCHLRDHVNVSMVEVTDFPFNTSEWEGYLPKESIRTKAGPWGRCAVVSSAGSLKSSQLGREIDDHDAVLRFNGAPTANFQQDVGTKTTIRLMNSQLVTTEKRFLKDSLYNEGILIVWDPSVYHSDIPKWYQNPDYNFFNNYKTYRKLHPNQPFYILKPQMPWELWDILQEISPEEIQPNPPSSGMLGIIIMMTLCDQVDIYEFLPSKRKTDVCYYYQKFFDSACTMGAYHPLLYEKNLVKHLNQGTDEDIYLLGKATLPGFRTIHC
Friendly reminder: Ki below 0.2 µM is y, at or above is n.

molecule	experimental-target	class
Nc1ccn([C@@H]2O[C@H](COP(=O)(O)OC(C(=O)N3CCCCC3)P(=O)(O)O)[C@@H](O)[C@H]2O)c(=O)n1 (stereo in doubt; 5d-s)	Beta-galactoside alpha-2,6-sialyltransferase 1 (Homo sapiens)	y
CC(=O)N[C@H]1[C@H](Oc2ccccc2)OC(C(OP(=O)(O)OC[C@H]2O[C@@H](n3ccc(N)nc3=O)[C@H](O)[C@@H]2O)P(=O)(O)O)=C[C@@H]1O (stereo in doubt; 1-h)	Beta-galactoside alpha-2,6-sialyltransferase 1 (Homo sapiens)	y
Nc1ccn([C@@H]2O[C@H](COP(=O)(O)OC(C(=O)Nc3ccccc3)P(=O)(O)O)[C@@H](O)[C@H]2O)c(=O)n1 (stereo in doubt; 5b-s)	Beta-galactoside alpha-2,6-sialyltransferase 1 (Homo sapiens)	y
Nc1ccn([C@@H]2O[C@H](COP(=O)(O)OC(CNC(=O)c3ccccc3)P(=O)(O)O)[C@@H](O)[C@H]2O)c(=O)n1 (stereo in doubt; 5a-s)	Beta-galactoside alpha-2,6-sialyltransferase 1 (Homo sapiens)	y
Nc1ccn([C@@H]2O[C@H](COP(=O)(O)OC(C(=O)N3CCCCC3)P(=O)(O)O)[C@@H](O)[C@H]2O)c(=O)n1 (stereo in doubt; 5d-l)	Beta-galactoside alpha-2,6-sialyltransferase 1 (Homo sapiens)	y
CC(=O)N[C@H]1[C@H](Oc2ccccc2)OC(C(OP(=O)(O)OC[C@H]2O[C@@H](n3ccc(N)nc3=O)[C@H](O)[C@@H]2O)P(=O)(O)O)=C[C@@H]1O (stereo in doubt; 1-l)	Beta-galactoside alpha-2,6-sialyltransferase 1 (Homo sapiens)	n
Nc1ccn([C@@H]2O[C@H](COP(=O)(O)OC(CNC(=O)c3ccccc3)P(=O)(O)O)[C@@H](O)[C@H]2O)c(=O)n1 (stereo in doubt; 5a-l)	Beta-galactoside alpha-2,6-sialyltransferase 1 (Homo sapiens)	y
Nc1ccn([C@@H]2O[C@H](COP(=O)(O)OC(c3ccccc3)P(=O)(O)O)[C@@H](O)[C@H]2O)c(=O)n1 (stereo in doubt; 2l)	Beta-galactoside alpha-2,6-sialyltransferase 1 (Homo sapiens)	n
Nc1ccn([C@@H]2O[C@H](COP(=O)(O)OC(C(=O)Nc3ccccc3)P(=O)(O)O)[C@@H](O)[C@H]2O)c(=O)n1 (stereo in doubt; 5b-l)	Beta-galactoside alpha-2,6-sialyltransferase 1 (Homo sapiens)	y
Nc1ccn([C@@H]2O[C@H](COP(=O)(O)OC(C(=O)N3CCCC3)P(=O)(O)O)[C@@H](O)[C@H]2O)c(=O)n1 (stereo in doubt; 5c-l)	Beta-galactoside alpha-2,6-sialyltransferase 1 (Homo sapiens)	y

* * *

List of Ratio values.
target: UniProt P15907; test: Inhibition of recombinant human ST6Gal-1 (44 to 406 residues) assessed as ratio of CMP-Neu5Ac Km to compound Ki […] by UV/RP-HPLC method

molecule	Ratio
Nc1ccn([C@@H]2O[C@H](COP(=O)(O)OC(C3CCCC3)P(=O)(O)O)[C@@H](O)[C@H]2O)c(=O)n1 (stereo partly specified)	7.1
Nc1ccn([C@@H]2O[C@H](COP(=O)(O)OC(CNC(=O)c3ccccc3)P(=O)(O)O)[C@@H](O)[C@H]2O)c(=O)n1 (stereo in doubt; 5a-l)	239
Nc1ccn([C@@H]2O[C@H](COP(=O)(O)OC(C(=O)Nc3ccccc3)P(=O)(O)O)[C@@H](O)[C@H]2O)c(=O)n1 (stereo in doubt; 5b-l)	341
Nc1ccn([C@@H]2O[C@H](COP(=O)(O)OC(c3ccccc3)P(=O)(O)O)[C@@H](O)[C@H]2O)c(=O)n1 (stereo in doubt; 2h)	230
Nc1ccn([C@@H]2O[C@H](COP(=O)(O)OC(C(=O)N3CCCCC3)P(=O)(O)O)[C@@H](O)[C@H]2O)c(=O)n1 (stereo in doubt; 5d-s)	2080
CC(=O)NC[C@@H]1CCC(OP(=O)(O)OC[C@H]2O[C@@H](n3ccc(N)nc3=O)[C@H](O)[C@@H]2O)(P(=O)(O)O)[C@H]1OCc1ccccc1 (stereo in doubt; 4-h)	1490
